Test system: 874868-142-R-J2-PDC complex spheroids, growth % test/control
Test: Anticancer human tumor 874868-142-R-J2-PDC patient-derived head and neck squamous carcinoma cell line growth inhibition [CLK]
Details: second compound 0.0316 µM; first compound 0.1 µM; hits give low values
Text: A high-throughput screen of multi-cell type tumor spheroids was designed to identify active combinations of […] and targeted small molecules. Complex spheroids include a stromal component modeled by human endothelial cells (HUVEC) and fibroblasts modeled by human mesenchymal stem cells (MSCs). […] Compounds. […] If the clinical Cmax for an agent had not been determined, the highest concentration tested was 10 microM. […]
Field 'label' (enum: Y / N). Set to Y when viability, T/C is strictly under 50%; else N.

molecule="CC(=O)O[C@H]1C(=O)[C@@]2(C)[C@H]([C@H](OC(=O)c3ccccc3)[C@]3(O)C[C@H](OC(=O)[C@H](O)[C@@H](NC(=O)c4ccccc4)c4ccccc4)C(C)=C1C3(C)C)[C@]1(OC(C)=O)CO[C@@H]1C[C@@H]2O + CNC(=O)c1ccc(Nc2nc(OC3CCCC3)c3c(-c4ccc5nc(C)oc5c4)c[nH]c3n2)c(OC)c1" system_name="874868-142-R-J2-PDC complex spheroids, growth % test/control" class_assignment=Y
molecule="COc1cccc2c1C(=O)c1c(O)c3c(c(O)c1C2=O)CC(O)(C(=O)CO)CC3OC1CC(N)C(O)C(C)O1 (stereo not given) + CN1CCN(c2cc(C(=O)Nc3cc4cc(-c5cnn(C)c5)ccc4cn3)ccn2)CC1" system_name="874868-142-R-J2-PDC complex spheroids, growth % test/control" class_assignment=Y
molecule="O=c1[nH]cc(F)c(=O)[nH]1 + CNC(=O)c1ccc(Nc2nc(OC3CCCC3)c3c(-c4ccc5nc(C)oc5c4)c[nH]c3n2)c(OC)c1" system_name="874868-142-R-J2-PDC complex spheroids, growth % test/control" class_assignment=N

Report whether reported viability, T/C is lower than 50% (strictly) for CC(CO)NC(=O)c1cc(-c2ccc(Cl)cc2)nn(-c2cnn(C)c2)c1=O (stereo not given) + CNC(=O)c1ccc(Nc2nc(OC3CCCC3)c3c(-c4ccc5nc(C)oc5c4)c[nH]c3n2)c(OC)c1
N

Report whether reported viability, T/C is lower than 50% (strictly) for CCc1c2c(nc3ccc(O)cc13)-c1cc3c(c(=O)n1C2)COC(=O)[C@]3(O)CC + CNC(=O)c1ccc(Nc2nc(OC3CCCC3)c3c(-c4ccc5nc(C)oc5c4)c[nH]c3n2)c(OC)c1
Y

* * *

viability, T/C for assorted molecules
Test system: 874868-142-R-J2-PDC complex spheroids, growth % test/control
Test: Anticancer human tumor 874868-142-R-J2-PDC cell line growth inhibition [CLK];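 further: spheroids exposed to the compounds for 7 days; 100% = DMSO vehicle control viability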
Conditions: second compound 3.16 µM; first compound 0.0949 µM; hits give low values
Report the value in % with no unit label.

Notebook: pull reported viability, T/C for 874868-142-R-J2-PDC complex spheroids, growth % test/control, entry C=CC(=O)Nc1cc(Nc2nccc(-c3cn(C)c4ccccc34)n2)c(OC)cc1N(C)CCN(C)C + CNC(=O)c1ccc(Nc2nc(OC3CCCC3)c3c(-c4ccc5nc(C)oc5c4)c[nH]c3n2)c(OC)c1
25.5

Notebook: pull reported viability, T/C for 874868-142-R-J2-PDC complex spheroids, growth % test/control, entry CC(C)CC(NC(=O)C(Cc1ccccc1)NC(=O)c1cnccn1)B(O)O (stereo unspecified) + CNC(=O)c1ccc(Nc2nc(OC3CCCC3)c3c(-c4ccc5nc(C)oc5c4)c[nH]c3n2)c(OC)c1
7.41

Notebook: pull reported viability, T/C for 874868-142-R-J2-PDC complex spheroids, growth % test/control, entry NC(=O)C(=Cn1cnc(-c2cc(C(F)(F)F)cc(C(F)(F)F)c2)n1)c1cncnc1 + CN1CCN(c2cc(C(=O)Nc3cc4cc(-c5cnn(C)c5)ccc4cn3)ccn2)CC1
0.46

Notebook: pull reported viability, T/C for 874868-142-R-J2-PDC complex spheroids, growth % test/control, entry C=CC(=O)Nc1cc(Nc2nccc(-c3cn(C)c4ccccc34)n2)c(OC)cc1N(C)CCN(C)C + CN1CCN(c2cc(C(=O)Nc3cc4cc(-c5cnn(C)c5)ccc4cn3)ccn2)CC1
4.28

Notebook: pull reported viability, T/C for 874868-142-R-J2-PDC complex spheroids, growth % test/control, entry NC(=O)C(=Cn1cnc(-c2cc(C(F)(F)F)cc(C(F)(F)F)c2)n1)c1cncnc1 + CNC(=O)c1ccc(Nc2nc(OC3CCCC3)c3c(-c4ccc5nc(C)oc5c4)c[nH]c3n2)c(OC)c1
12.4

Notebook: pull reported viability, T/C for 874868-142-R-J2-PDC complex spheroids, growth % test/control, entry CC(C)CC(NC(=O)C(Cc1ccccc1)NC(=O)c1cnccn1)B(O)O (stereo unspecified) + CN1CCN(c2cc(C(=O)Nc3cc4cc(-c5cnn(C)c5)ccc4cn3)ccn2)CC1
0.4

* * *

Tested on: 874868-142-R-J2-PDC complex spheroids, growth % test/control
Assay: Anticancer human tumor 874868-142-R-J2-PDC cell line growth inhibition [CLK]; active = viability on the fitted dose curve at most 10% of control; inactive = the rest;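 further: spheroids exposed to the compounds for 7 days; 100% = DMSO vehicle control viability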
Conditions: second compound 0.316 µM; first compound 10 µM
Give your call using only these classes: active, inactive

compound="C=CC(=O)N1CCN(c2nc(=O)n(-c3c(C)ccnc3C(C)C)c3nc(-c4c(O)cccc4F)c(F)cc23)C(C)C1 (stereo not given) + CNC(=O)c1ccc(Nc2nc(OC3CCCC3)c3c(-c4ccc5nc(C)oc5c4)c[nH]c3n2)c(OC)c1" system_name="874868-142-R-J2-PDC complex spheroids, growth % test/control" class_assignment=inactive
compound="COC1C=CCC(C)C(C)S(=O)(=O)NC(=O)c2ccc3c(c2)N(CC2CCC21)CC1(CCCc2cc(Cl)ccc21)CO3 (stereo not given) + CNC(=O)c1ccc(Nc2nc(OC3CCCC3)c3c(-c4ccc5nc(C)oc5c4)c[nH]c3n2)c(OC)c1" system_name="874868-142-R-J2-PDC complex spheroids, growth % test/control" class_assignment=inactive
compound="O=C(c1cc(Cc2n[nH]c(=O)c3ccccc23)ccc1F)N1CCN(C(=O)C2CC2)CC1 + CNC(=O)c1ccc(Nc2nc(OC3CCCC3)c3c(-c4ccc5nc(C)oc5c4)c[nH]c3n2)c(OC)c1" system_name="874868-142-R-J2-PDC complex spheroids, growth % test/control" class_assignment=inactive
compound="Nc1ccccc1NC(=O)c1ccc(CNC(=O)OCc2cccnc2)cc1 + CN1CCN(c2cc(C(=O)Nc3cc4cc(-c5cnn(C)c5)ccc4cn3)ccn2)CC1" system_name="874868-142-R-J2-PDC complex spheroids, growth % test/control" class_assignment=active

Now look at this entry.
Hi team, can someone confirm the assay call for O=C(c1cc(Cc2n[nH]c(=O)c3ccccc23)ccc1F)N1CCN(C(=O)C2CC2)CC1 + CN1CCN(c2cc(C(=O)Nc3cc4cc(-c5cnn(C)c5)ccc4cn3)ccn2)CC1 ?
inactive

* * *

System: 874868-142-R-J2-PDC complex spheroids, growth % test/control
Experiment: Anticancer human tumor 874868-142-R-J2-PDC cell line growth inhibition [CLK]; active = viability on the fitted dose curve at most 10% of control; inactive = the rest;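 further: spheroids exposed to the compounds for 7 days; 100% = DMSO vehicle control viability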
Details: second compound 1 µM; first compound 0.3 µM
Give your call using only these classes: true (1) (active), false (0) (inactive)

# example entries with known answers
molecule="NC(=O)C(=Cn1cnc(-c2cc(C(F)(F)F)cc(C(F)(F)F)c2)n1)c1cncnc1 + CN1CCN(c2cc(C(=O)Nc3cc4cc(-c5cnn(C)c5)ccc4cn3)ccn2)CC1" class_assignment="true (1)"
molecule="CC(C)CC(NC(=O)C(Cc1ccccc1)NC(=O)c1cnccn1)B(O)O (stereo unspecified) + CN1CCN(c2cc(C(=O)Nc3cc4cc(-c5cnn(C)c5)ccc4cn3)ccn2)CC1" class_assignment="true (1)"
molecule="CC(C)CC(NC(=O)C(Cc1ccccc1)NC(=O)c1cnccn1)B(O)O (stereo unspecified) + CNC(=O)c1ccc(Nc2nc(OC3CCCC3)c3c(-c4ccc5nc(C)oc5c4)c[nH]c3n2)c(OC)c1" class_assignment="true (1)"
molecule="C=CC(=O)Nc1cc(Nc2nccc(-c3cn(C)c4ccccc34)n2)c(OC)cc1N(C)CCN(C)C + CN1CCN(c2cc(C(=O)Nc3cc4cc(-c5cnn(C)c5)ccc4cn3)ccn2)CC1" class_assignment="true (1)"
molecule="NC(=O)C(=Cn1cnc(-c2cc(C(F)(F)F)cc(C(F)(F)F)c2)n1)c1cncnc1 + CNC(=O)c1ccc(Nc2nc(OC3CCCC3)c3c(-c4ccc5nc(C)oc5c4)c[nH]c3n2)c(OC)c1" class_assignment="true (1)"

Hi team, can someone confirm the assay call for C=CC(=O)Nc1cc(Nc2nccc(-c3cn(C)c4ccccc34)n2)c(OC)cc1N(C)CCN(C)C + CNC(=O)c1ccc(Nc2nc(OC3CCCC3)c3c(-c4ccc5nc(C)oc5c4)c[nH]c3n2)c(OC)c1 ?
false (0)

* * *

System: 874868-142-R-J2-PDC complex spheroids, growth % test/control
Assay: Anticancer human tumor 874868-142-R-J2-PDC cell line growth inhibition [CLK];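 further: spheroids exposed to the compounds for 7 days; 100% = DMSO vehicle control viability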
Settings: second compound 0.0316 µM; first compound 0.1 µM; hits give low values
viability, T/C for assorted compounds
Report the value in % with no unit label.

compound="CC1COCCN1c1cc(C2(S(C)(=N)=O)CC2)nc(-c2ccnc3[nH]ccc23)n1 (stereo not drawn) + CN1CCN(c2cc(C(=O)Nc3cc4cc(-c5cnn(C)c5)ccc4cn3)ccn2)CC1" test_result=82.5

May I ask what viability, T/C has been recorded for COc1cccc2c1C(=O)c1c(O)c3c(c(O)c1C2=O)CC(O)(C(=O)CO)CC3OC1CC(N)C(O)C(C)O1 (stereo not drawn) + CNC(=O)c1ccc(Nc2nc(OC3CCCC3)c3c(-c4ccc5nc(C)oc5c4)c[nH]c3n2)c(OC)c1 ?
40.8

May I ask what viability, T/C has been recorded for CC1(C)CCC(CN2CCN(c3ccc(C(=O)NS(=O)(=O)c4ccc(NCC5CCOCC5)c([N+](=O)[O-])c4)c(Oc4cnc5[nH]ccc5c4)c3)CC2)=C(c2ccc(Cl)cc2)C1 + CN1CCN(c2cc(C(=O)Nc3cc4cc(-c5cnn(C)c5)ccc4cn3)ccn2)CC1 ?
90.4
